Consider the following compounds; for each one, report its half-life at 10 μM.
Experiment: Human liver microsome stability assay
Assay type: in vitro ADME
Conditions: human, liver microsomes; 10 μM compound; read-out: Half-life (min) (HumanLM)
One number for each entry, in min.

CNC(=O)c1ncn2c1CN=C(c1ccccc1F)c1cc(Br)ccc1-2 595
C#Cc1ccc2c(c1)C(c1ccccc1F)=N[C@H](C)c1c(C(=O)NCC)ncn1-2 751
C#Cc1ccc2c(c1)C(c1ccccc1F)=N[C@@H](C)c1c(C(=O)N(C)C)ncn1-2 100

Exam item: Give its half-life at 10 μM value. Item: C#Cc1ccc2c(c1)C(c1ccccc1F)=N[C@H](C)c1c(C(=O)NC3CC3)ncn1-2
Marked response: 712
